Values from PubChem BioAssay (NCI)

# System: M14 melanoma
# Assay Remarks: NCI tumour cell line growth inhibition, 48 h
Readout: TGI (µM)

Compound: CN(Cc1cc(Cl)cc(Cl)c1)CC(C(=O)c1ccccc1)c1ccccc1 (stereo not drawn)
System Under Test: M14 melanoma
Readout: TGI
Unit Tag: µM
Relation: =
Val: 13.5
//
Compound: COc1ccc(N2C=Nn3c(nc4sc5c(c4c3=O)CCCC5)C2)cc1
System Under Test: M14 melanoma
Readout: TGI
Unit Tag: µM
Relation: >
Val: 100
//
Compound: O=C(CNc1ccccc1[N+](=O)[O-])Nn1c(-c2ccccc2)nc2ccccc2c1=O
System Under Test: M14 melanoma
Readout: TGI
Unit Tag: µM
Relation: =
Val: 38.1
//
Compound: CN(CCNCc1cn(C)c2c1ccc1ccccc12)CCNCc1cn(C)c2c1ccc1ccccc12
System Under Test: M14 melanoma
Readout: TGI
Unit Tag: µM
Relation: =
Val: 0.904
//
Compound: COc1cccc(/C=C/C(=O)c2ccc(Cl)cc2Cl)c1
System Under Test: M14 melanoma
Readout: TGI
Unit Tag: µM
Relation: =
Val: 22.3
//
Compound: O=C(O)CC1NCc2cc3ccccc3nc21 (stereo not drawn)
System Under Test: M14 melanoma
Readout: TGI
Unit Tag: µM
Relation: >
Val: 100
//
Compound: CCc1cccc(CC)c1NC(=O)C1=C(C)NC(C)=C(C(=O)Nc2c(CC)cccc2CC)C1c1ccc([N+](=O)[O-])cc1
System Under Test: M14 melanoma
Readout: TGI
Unit Tag: µM
Relation: =
Val: 42.5
//
Compound: COc1cc(CNc2ccccc2C(=O)N2CCN(C(=O)c3cc(-c4cc(OC)c(OC)c(OC)c4)n4nc(-c5ccccc5)cc4n3)CC2)cc(OC)c1OC
System Under Test: M14 melanoma
Readout: TGI
Unit Tag: µM
Relation: >
Val: 100
//
Compound: CCn1c(-c2cc3ccccc3cc2O)nn(C(=O)c2c(Cl)cccc2Cl)c1=S
System Under Test: M14 melanoma
Readout: TGI
Unit Tag: µM
Relation: =
Val: 21.9
//
Compound: O=Cc1cccc2c1Oc1c(cccc1C(=O)O)S2
System Under Test: M14 melanoma
Readout: TGI
Unit Tag: µM
Relation: >
Val: 100
//
Compound: CC1C2(C)OC(=N)C(C#N)(C(c3cccc([N+](=O)[O-])c3)O2)C1(C#N)C#N (stereo not drawn)
System Under Test: M14 melanoma
Readout: TGI
Unit Tag: µM
Relation: =
Val: 38.7
//
Compound: CC[C@H]1C=CCC[C@@]2(C[C@@H]3CC[C@H]4[C@@H](C(=O)OCCCCCCCCCCCCCCCC(=O)N(CCCN)C[C@@H](O)CCN)[C@@]5(CCC[C@@H](C)O5)NC(=[N+]34)N2)O1
System Under Test: M14 melanoma
Readout: TGI
Unit Tag: µM
Relation: =
Val: 3.82
//
Compound: Cn1c2ccc(Br)cc2c2c3c(c4c5ccccc5[nH]c4c21)C(=O)N(O)C3=O
System Under Test: M14 melanoma
Readout: TGI
Unit Tag: µM
Relation: =
Val: 0.307

###

# System: HCT-15 colon
# Assay Remarks: NCI tumour cell line growth inhibition, 48 h
Readout: TGI

Compound String: CC[C@H]1C=CCC[C@@]2(C[C@@H]3CC[C@H]4[C@@H](C(=O)OCCCCCCCCCCCCCCCC(=O)N(CCCN)C[C@@H](O)CCN)[C@@]5(CCC[C@@H](C)O5)NC(=[N+]34)N2)O1
Val: > 10 µM
//
Compound String: Cc1cccc(C)c1NC(=O)Nc1ccc(S(N)(=O)=O)cc1
Val: > 100 µM
//
Compound String: SCCSCCCSCCS
Val: > 100 µM
